- test system: noradrenaline transporter (hNET) (Homo sapiens)
- Sequence (P23975 whole entry): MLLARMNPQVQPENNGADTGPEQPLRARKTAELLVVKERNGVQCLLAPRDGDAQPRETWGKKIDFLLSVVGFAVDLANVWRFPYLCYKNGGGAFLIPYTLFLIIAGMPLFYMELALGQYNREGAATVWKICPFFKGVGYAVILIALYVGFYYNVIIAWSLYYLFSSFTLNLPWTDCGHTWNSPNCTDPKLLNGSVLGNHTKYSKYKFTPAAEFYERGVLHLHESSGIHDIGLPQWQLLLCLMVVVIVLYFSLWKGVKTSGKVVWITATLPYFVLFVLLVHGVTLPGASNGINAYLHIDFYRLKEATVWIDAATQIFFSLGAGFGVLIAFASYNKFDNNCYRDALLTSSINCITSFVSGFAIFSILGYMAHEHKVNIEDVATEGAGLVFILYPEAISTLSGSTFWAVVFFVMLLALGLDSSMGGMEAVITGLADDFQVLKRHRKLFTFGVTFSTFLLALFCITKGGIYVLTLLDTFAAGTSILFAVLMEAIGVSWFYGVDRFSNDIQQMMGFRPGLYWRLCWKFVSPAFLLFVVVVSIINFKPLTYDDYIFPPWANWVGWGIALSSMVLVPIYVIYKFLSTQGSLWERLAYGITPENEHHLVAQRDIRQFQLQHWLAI
- method summary: Inhibition of 3H-noradrenaline uptake in HEK-293 cells expressing hNET
- recorded conditions: HEK-293 hNET cells, 3H-Noradrenaline 200 nM, 15 min incubation; read-out: noradrenaline re-uptake inhibition IC50
- Method: Cells were harvested for the assay to yield a cell suspension of 750,000 cells/ml. All test compounds were dissolved in 100% DMSO and diluted down in assay buffer to give appropriate test concentrations. Assays were carried out in 96-well filter bottom plates. […] The quantity of ^3H-substrate incorporated into the cells was then quantified. Assay plates were dried in a microwave oven, scintillation fluid added, and radioactivity measured. […]
pIC50: −log10 of the molar value.
assay readout: pIC50

• CC(C)CN(C(=O)c1ccc2ccccc2c1)[C@@H]1CCNC1.Cl [Example 23, hydrochloride] = 5.91

###

- test system: human serotonin transporter (hSERT) (Homo sapiens)
- Construct: expressed in transfected cells
- Sequence (P31645 whole entry): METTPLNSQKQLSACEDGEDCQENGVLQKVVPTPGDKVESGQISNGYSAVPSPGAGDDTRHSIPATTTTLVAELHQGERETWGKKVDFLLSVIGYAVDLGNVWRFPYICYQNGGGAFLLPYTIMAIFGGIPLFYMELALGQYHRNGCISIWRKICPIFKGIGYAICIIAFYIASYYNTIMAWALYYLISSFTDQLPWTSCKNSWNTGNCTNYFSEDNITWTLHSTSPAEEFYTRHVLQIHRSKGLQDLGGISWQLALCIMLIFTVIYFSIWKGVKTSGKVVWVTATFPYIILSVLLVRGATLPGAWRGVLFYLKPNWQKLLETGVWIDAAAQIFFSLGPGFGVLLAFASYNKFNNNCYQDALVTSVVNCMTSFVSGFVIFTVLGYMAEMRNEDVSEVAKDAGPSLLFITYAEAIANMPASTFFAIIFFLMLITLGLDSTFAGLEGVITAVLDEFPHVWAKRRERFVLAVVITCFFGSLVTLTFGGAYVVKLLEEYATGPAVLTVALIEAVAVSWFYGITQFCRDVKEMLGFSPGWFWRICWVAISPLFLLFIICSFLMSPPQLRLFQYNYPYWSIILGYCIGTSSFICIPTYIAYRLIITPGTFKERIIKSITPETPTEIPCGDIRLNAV
- method summary: Inhibition of 3H-serotonin uptake in HEK-293 cells expressing hSERT
- Type: cell-based
- recorded conditions: HEK-293 hSERT cells, 3H-5HT 50 nM, 5 min incubation; read-out: serotonin re-uptake inhibition (SRI) IC50
assay readout: IC50 (nM)

- CC(C)CN(C(=O)c1ccc2ccccc2c1)[C@@H]1CCNC1.Cl [Example 23, hydrochloride]: 4.7
